System: Human breast cancer cell line HCC38
protocol_details: Cell proliferation inhibition test upon SLFN11 knockdown, HCC38
Assay type: cell-based
test_conditions: Homo sapiens, HCC38, 72 h, read-out: IC50 (nM) Non-targeting Control Pool
value_type: IC50 (nM)
Please give a number only; it is taken to be in nM.

Exercise: # returns recorded IC50 (system: Human breast cancer cell line HCC38) for CC[C@@]1(O)C(=O)OCc2c1cc1n(c2=O)Cc2c-1nc1cc(F)c(C)c3c1c2[C@@H](NC(=O)CO)CC3
Solution: 1.6

----------
Tested on: Human lung cancer cell line NCI-H1781
protocol_details: Cell proliferation inhibition test upon SLFN11 knockdown, NCI-H1781
Type: cell-based
test_conditions: Homo sapiens, NCI-H1781, 72 h, read-out: IC50 (nM) SLFN11 siRNA
value_type: IC50

Exercise: Returns the measured IC50 for the input compound. Input: CC[C@@]1(O)C(=O)OCc2c1cc1n(c2=O)Cc2c-1nc1cc(F)c(C)c3c1c2[C@@H](NC(=O)CO)CC3
Solution: 15 nM
